Experiment: self-splicing fitness, log relative to wild type (ln ratio); higher = more splicing; Tetrahymena group I intron in knt gene, E. coli kanamycin selection, DiMSum; sequences stand for … in CUCUCU…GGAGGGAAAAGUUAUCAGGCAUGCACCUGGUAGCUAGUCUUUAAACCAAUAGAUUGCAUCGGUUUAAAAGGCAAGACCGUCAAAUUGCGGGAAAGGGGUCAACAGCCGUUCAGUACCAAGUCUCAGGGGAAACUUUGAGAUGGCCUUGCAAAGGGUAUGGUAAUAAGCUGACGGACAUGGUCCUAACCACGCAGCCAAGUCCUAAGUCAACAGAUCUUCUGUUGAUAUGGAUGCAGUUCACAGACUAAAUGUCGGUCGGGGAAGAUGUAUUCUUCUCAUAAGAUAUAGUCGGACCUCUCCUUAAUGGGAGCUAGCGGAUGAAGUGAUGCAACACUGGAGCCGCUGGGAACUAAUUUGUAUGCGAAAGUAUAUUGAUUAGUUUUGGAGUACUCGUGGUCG;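 note: selection with 25 µg/mL kanamycin versus none on LB agar overnight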
Conditions: 30 °C
Recorded self-splicing fitness (ln), one value per entry.

querySequence | self-splicing fitness (ln)
AACCAGCAAUAUUACGUUUG | -2.83

Q: Which self-splicing fitness (ln) value is on record for `GGUCAGCAAUAUUACGGACG` ?
Result: -0.915

Q: Could you tell me which self-splicing fitness (ln) is on file for `ACUAAGCAAUAUUACGACUG` ?
Result: -0.95

Q: // self-splicing fitness (ln) lookup, key: `CCAAAGCAAUAUUACGUAAG`
Result: -0.334

Q: For the sequence shown here, `GGCGAGCAAUAUUACGACAC` , give the reported self-splicing fitness (ln).
Result: -1.12

Q: Query: self-splicing fitness (ln); subject: `GGUAAGCAAUAUUACGGUCG`
Result: -0.945

Q: Dear colleague, I am looking for the recorded self-splicing fitness (ln) of the following sequence: `AGUUAGCAAUAUUACGAGGC`
Result: -3.83
